Recorded Fold Difference (against parental variant) by entry
Target: T1, human PD-L1 ECD-His (human, UniProt Q9NZQ7 19-238)
T1 construct: extracellular domain; Analyte in all SPR and BLI runs; also called hPD-L1_ECD-His; hPD-L1 ECD-His; not shown: His tag
T1 sequence (Q9NZQ7 19-238): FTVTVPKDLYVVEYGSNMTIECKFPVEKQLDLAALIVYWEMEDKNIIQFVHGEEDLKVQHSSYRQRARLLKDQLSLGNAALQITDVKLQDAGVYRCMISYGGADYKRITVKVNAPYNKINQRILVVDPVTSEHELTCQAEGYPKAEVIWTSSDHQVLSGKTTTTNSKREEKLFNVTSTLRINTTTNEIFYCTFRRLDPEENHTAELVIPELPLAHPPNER
Assay: BLI, ratio of KD to parental PL3#7-19
All answers are understood in fold, so give the number only.

{"BINDER": "PL3#7-19 deglyco3 mtIgG1 (antibody, V domains shown, N297A mutant human IgG1) VH: QVQLVQSGAEVKKPGSSVKVSCKASGGTFSSYPISWVRQAPGQGLEWMGRIIPILGIANYAQKFQGRVTITADKSTSTAYMELSSLRSEDTAVYYCARSRDGYAFGAFDVWGQGTLVTVSS VL: QSVVTQPPPVSGAPGQRVTISCTGSSSNIGGGYDVHWYQQLPGTAPKLLIYGNSQRPSGVPDRFSGSKSGTSASLAITGLQAEDEADYYCQTYDSSLSATVVFGGGTKLTVLG", "VALUE": 1.74}
{"BINDER": "PL3#7-19 deglyco1 mtIgG1 (antibody, V domains shown, N297A mutant human IgG1; also called PL3#7-19 deglycol) VH: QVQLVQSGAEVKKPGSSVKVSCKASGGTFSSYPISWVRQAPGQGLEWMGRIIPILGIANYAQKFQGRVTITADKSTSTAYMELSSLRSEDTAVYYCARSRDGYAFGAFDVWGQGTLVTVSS VL: QSVVTQPPPVSGAPGQRVTISCTGSSSNIGGGYDVHWYQQLPGTAPKLLIYGNSNRPSGVPDRFSGSKSGTSASLAITGLQAEDEADYYCQTYDSSLSATVVFGGGTKLTVLG", "VALUE": 1.48}
{"BINDER": "PL3#7-19 deglyco2 mtIgG1 (antibody, V domains shown, N297A mutant human IgG1) VH: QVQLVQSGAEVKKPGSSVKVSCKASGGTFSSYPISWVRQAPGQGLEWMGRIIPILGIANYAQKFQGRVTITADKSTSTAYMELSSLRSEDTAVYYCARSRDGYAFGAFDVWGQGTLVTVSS VL: QSVVTQPPPVSGAPGQRVTISCTGSSSNIGGGYDVHWYQQLPGTAPKLLIYGQSTRPSGVPDRFSGSKSGTSASLAITGLQAEDEADYYCQTYDSSLSATVVFGGGTKLTVLG", "VALUE": 1.68}

Here is the next item to consider.
// returns reported Fold Difference (against parental variant) for input PL3#7-19 mtIgG1 (antibody, V domains shown, Antibody was biotinylated (NHS-PEG4-biotin, sites not specified) for the Octet assay of Table 11., N297A mutant human IgG1; also called PL3#7-19 parental mtIgG1) VH: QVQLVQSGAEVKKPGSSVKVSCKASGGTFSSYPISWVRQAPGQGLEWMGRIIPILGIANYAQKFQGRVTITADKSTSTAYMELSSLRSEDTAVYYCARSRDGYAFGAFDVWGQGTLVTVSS VL: QSVVTQPPPVSGAPGQRVTISCTGSSSNIGGGYDVHWYQQLPGTAPKLLIYGNSTRPSGVPDRFSGSKSGTSASLAITGLQAEDEADYYCQTYDSSLSATVVFGGGTKLTVLG 1
